Cited source: ChEMBL document CHEMBL1137842

Test: pKa value by photometric titration
Format: physicochemical
experimental endpoint: pKa
Format: numeric value only, no unit, no commentary.

## Input # pKa lookup, item NC1=Nc2cc(CCCNCc3cccc(Cl)c3)ccc2[C@H]2CCC[C@@]12F
## Output 8

## Input Data request, read-out pKa, for NC1=Nc2ccc(Cl)cc2[C@H]2CCC[C@@H]12
## Output 9.4

## Input Consider the compound shown here: NC1=Nc2cc(CCCNCc3cccc(Cl)c3)ccc2[C@H]2CCC[C@@H]12 What is its recorded pKa?
## Output 9.9

## Input Sample NC1=Nc2ccccc2[C@H]2CCC[C@@H]12 — what was its pKa?
## Output 9.7

## Input # input compound: NC1=Nc2ccc(Cl)cc2[C@H]2CCC[C@@]12F ; wanted: its pKa
## Output 7.6

## Input Look up pKa for this compound: NC1=Nc2c(ccc(F)c2F)[C@H]2CCC[C@@H]12
## Output 8

## Input Recorded pKa of NC1=Nc2c(F)cc(Cl)cc2[C@H]2CCC[C@@H]12 , please.
## Output 8.2

## Input What value of measured pKa is listed for CNCCc1ccc2c(c1)N=C(N)[C@]1(F)CCC[C@H]21 ?
## Output 7.9

## Input So what does the record say about pKa for NC1=Nc2ccccc2[C@H]2CCC[C@@]12F ?
## Output 7.9

## Input Given the compound NC1=Nc2c(F)cccc2[C@H]2CCC[C@@H]12 , what is its reported pKa?
## Output 8.5

## Input Which pKa is listed for NC1=Nc2c(F)cccc2[C@H]2CCC[C@@]12F ?
## Output 6.6
